molecular target: ERBIN PDZ domain (Homo sapiens, UniProt Q96RT1); assay: Competition ELISA, ERBIN PDZ-GST binding to immobilized biotinylated peptide; set-up: made in house; host or cells: E. coli; settings: ERBIN peptide truncations with N-terminal acylation; read-out: IC50
Sequence (Q96RT1 1258-1412): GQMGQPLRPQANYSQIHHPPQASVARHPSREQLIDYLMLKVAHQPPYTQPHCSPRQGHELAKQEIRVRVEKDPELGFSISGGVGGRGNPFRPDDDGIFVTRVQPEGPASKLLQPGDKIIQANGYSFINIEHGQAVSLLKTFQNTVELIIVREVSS
Where a SMILES comes first, the peptide text is derived from it.
readout type: pIC50
# log scale: pIC50 equals minus log10 of the concentration in mol/L

Read the entry CC(=O)N[C@@H](CCC(=O)O)C(=O)N[C@H](C(=O)N[C@@H](Cc1c[nH]c2ccccc12)C(=O)N[C@H](C(=O)O)C(C)C)[C@@H](C)O [Ac-ETWV] (Ac-ETWV-OH; C-terminus assumed) and write its reported pIC50.
5.31

Please give the documented pIC50 of CC(=O)N[C@@H](Cc1c[nH]c2ccccc12)C(=O)N[C@H](C(=O)O)C(C)C [Ac-WV] (Ac-Trp-Val-OH; C-terminus assumed)
4.11

---

target: ERBIN PDZ domain (Homo sapiens, UniProt Q96RT1); assay: Competition ELISA, ERBIN PDZ-GST binding to immobilized biotinylated peptide; parameters: made in house; host or cells: E. coli
Where no end group is shown, it is not given here.
readout type: IC50

Read off the recorded IC50 for H-GWETWV [H1N-GWETWV]
1400 nM

Give me measured IC50, please, for this substance: Ac-GWETWV [Ac-GWETWV]
900 nM
